# Tested system: T1, human Siglec-7 expressed on human cells (primary monocytes, dendritic cells, macrophages, NK cells, … (human, UniProt Q9Y286 19-467))
# T1 construct: Endogenous receptor on cells; also called Siglec-7 receptor
# T1 sequence (Q9Y286 19-467): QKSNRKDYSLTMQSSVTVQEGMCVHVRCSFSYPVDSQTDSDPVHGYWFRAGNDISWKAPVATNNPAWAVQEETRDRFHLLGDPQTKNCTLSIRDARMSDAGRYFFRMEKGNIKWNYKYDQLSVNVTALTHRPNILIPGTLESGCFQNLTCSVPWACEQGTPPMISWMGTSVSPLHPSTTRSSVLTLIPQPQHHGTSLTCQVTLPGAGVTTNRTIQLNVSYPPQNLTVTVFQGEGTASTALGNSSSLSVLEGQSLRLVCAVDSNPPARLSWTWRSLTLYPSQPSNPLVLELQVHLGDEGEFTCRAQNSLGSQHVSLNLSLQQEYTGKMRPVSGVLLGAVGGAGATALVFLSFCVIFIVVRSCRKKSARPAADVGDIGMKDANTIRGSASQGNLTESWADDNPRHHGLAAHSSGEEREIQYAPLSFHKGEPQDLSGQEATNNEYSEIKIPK
# Assay procedure: FACS, human primary dendritic cells, 10 ug/ml mAb
Measured attribute: MFI
Write no unit; give the number alone.

Here are 5 binders together with their reported answers.
# Binder, MFI
rows = [
    ("anti-Siglec-7 antibody 2G4 (antibody, V domains shown, Variable domains assembled from FR and CDR entries) VH: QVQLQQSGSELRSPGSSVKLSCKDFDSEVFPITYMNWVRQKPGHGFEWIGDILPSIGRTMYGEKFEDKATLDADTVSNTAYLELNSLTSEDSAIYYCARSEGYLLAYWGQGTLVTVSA VL: DIQMTQSLSYLSVSLGGRVTITCKASDHINNWLAWYQQKPGNAPRLLISGATSLETGFPSRFSGSGSGKDYTLSITSLQTEDVATYYCHQYWNTPYTFGGGTRLEIK", 5750),
    ("anti-Siglec-7 antibody 7E11 (antibody, V domains shown, Variable domains assembled from FR and CDR entries) VH: QVQLKQSGPVLVAPSQSLSITCTVSGFSLSNYGVHWVRQFPGKGLEWLGVIWAGGITNYNSVLMSRLSISKDNSKSQVFLKMNSLQTDDTAMYYCAKQGGTSFSYWGQGTLVTVSA VL: DIQMTQSPASQSASLGESVTITCLASQTIGTWLAWYQQKPGKSPQLLIYAATSLADGVPSRFSGSGSGTKFSFKISSLQAEDFVSYYCQQLYSTPYTFGGGTKLEIK", 845),
    ("anti-Siglec-7 antibody 10B5 (antibody, V domains shown, that light chain holds several Z and differs in its CDRs from S7-10B5.1 / 10B5L1; also called S7-10B5; mAb S7-10B5) VH: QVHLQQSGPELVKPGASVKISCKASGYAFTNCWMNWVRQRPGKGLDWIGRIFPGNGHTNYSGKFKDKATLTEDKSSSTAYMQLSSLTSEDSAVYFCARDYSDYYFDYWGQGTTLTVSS VL: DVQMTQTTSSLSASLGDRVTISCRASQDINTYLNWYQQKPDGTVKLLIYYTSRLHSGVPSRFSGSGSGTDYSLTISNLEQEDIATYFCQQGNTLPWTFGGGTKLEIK", 3230),
    ("anti-Siglec-7 antibody 3E11 (antibody, V domains shown, Variable domains assembled from FR and CDR entries) VH: QVQLQQSGAELARPGASVKLSCKASGYIFTDYGITWVKQRTGQGLEWIGEISPRSGETYFNENYRVKATLTADKSSSTAYMQLFSLTSEDSAVYFCAREGNPFTYWGHGTLVTVSA VL: DVZMTQTPLSLPVSLGDQASISCRSSQSLVHSTGNTYLHWYLQKPGQSPKLLIYKVSNRFCGVPDRFSGSGAGTDFTLKISRVEAEDLGVYFCSQNTHVPYTFGGGTKLEIK", 2520),
    ("anti-Siglec-7 antibody 4D7 (antibody, V domains shown, Variable domains assembled from FR and CDR entries) VH: QVQLQQSGAELVKPGASVKLSCKTSGYTFTNYWINWVKQRPGQGLEWIGNIYSGSSRTNYNEKFKSKATLTVDTSSSTAYMQLSSLTSDDSAVYYCAREGLRAMDYWGQGTSVTVSS VL: NZMTQFQKFMSTSVGDRVSLTCKASQKVGTNVAGFQQKPGHSPKAGIYSASTRHRGVQDRFTARGLGSDFILPITTZQLEDLAEYZCHQGNSVQYTFGGGTKLEIK", 250),
]

Input: // lookup MFI for anti-Siglec-7 antibody 2G1 (antibody, V domains shown, Variable domains assembled from FR and CDR entries; the printed VL FR1 looks shortened at its N-terminus; also called 2G11 (misprint in text)) VH: EVKLVESGGTLVKPGGSLKISCAASGFTFSNYDMSWVRQNPEKRLEWVATISSGGDYTYYPDIFKGRFTISRDDAKNALYLQMSSLRSEDTALYYCARHGYGNYDWYFDVWGAGATVTVSS VL: VLTQSPAIMSASPGEKVTMTCSANSSFIYMYWYQQKPGSSPRLLIFDTSNLASGVPIRFSGSGSGTSYSLTISRMEAEDTATYYCQQWSSSPLTFGGGTKLELK
Output: 10200

Input: // lookup MFI for anti-Siglec-7 antibody 1A12 (antibody, V domains shown, also called 1Al2) VH: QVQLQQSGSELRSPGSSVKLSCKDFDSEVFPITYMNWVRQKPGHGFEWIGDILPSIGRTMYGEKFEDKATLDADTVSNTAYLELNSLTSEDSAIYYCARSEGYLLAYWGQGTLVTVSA VL: DVZMTQTPLSLPVSLGDQASISCRSSQSLVHSTGNTYLHWYLQKPGQSPKLLIYKVSNRFSGVPDRFSGSGAGTDFTLKISRVEAEDLGVYFCSQNTHVPYTFGGGTKLEIK
Output: 6090

Input: // lookup MFI for anti-Siglec-7 antibody 7A3 (antibody, V domains shown, Variable domains assembled from FR and CDR entries; VL FR1 and VH FR1 hold Z and VH FR1 looks shortened at its N-terminus) VH: LVZSGGALVKPGGSLKLSCAASGFTFSNYAMSWVRQTPEKRLEWVASISSGGSYNYYPDSVKGRFTISRDNARNTLYLQMSSLRSKDTAMYYCASQSYGSSYWYFDVWGAGTTVTVSS VL: DIQMTQZPATLSVTPGDRVSLSCRASQSISEYLHWYHQKSHESPRLLIKFASQSICGIPSRFSGSGSGSDFTLTINSVEPEDVGVYYCQNGHNFPYTFGGGTKLEIK
Output: 956

Input: // lookup MFI for anti-Siglec-7 antibody 1E8 (antibody, V domains shown) VH: QVQLQQSGAELVRPGASVKLSCSASGFNIKGSLLHWIKQRPLQGLEWIGWIDPEDGETRFDPKFQDKAFLTADTSSTTAYLQLSSLTSEDTAIYYCARTEYSNPAWFAYWGQGTLVTVSA VL: DIQMTQFPATLSVTPGDRVSLSCRASQSISDYLHWYQHKSHESPRLLIKYASQSISGIPSRFSGSGSGWDFTLSINSVEPEDVGIYYCQKGLNFPLTFGGGTKLEMK
Output: 2940

Input: // lookup MFI for anti-Siglec-7 antibody 4E3 (antibody, V domains shown, VL FR1 there holds a Z); also called S7-4E3; mAb S7-4E3) VH: EVQLVESGGALVKPGGSLKISCAVSGFIFSNYDMSWVRQNPEKRLEWVATISSGGGYTYYPDSVKGRFTISRDNAKNALYLQMSSLRSEDTALYYCTRHGYGNYDWYFDVWGAGATVTVSS VL: QIVLTQSPAILSASPGEKVTMTCSANSSFTYMYWYQQKPGSSPRLLIFDTSNLASGVPIRFSGSGSGTSYSLTISRMEAEDTATYYCQQWSSSPLTFGAGTKLELK
Output: 2650
